Entry source: patent US20210246166A1

Exercise: for every item that follows, state its recorded human MASP2 IC50.
molecular target: recombinant human MASP2 active protease (amino acids 297-686, C-terminal His Tag) (human, UniProt O00187 297-686); assay: cell-based or functional assay
Sequence (O00187 other isoform, or with tags, fused parts or gaps limits assumed): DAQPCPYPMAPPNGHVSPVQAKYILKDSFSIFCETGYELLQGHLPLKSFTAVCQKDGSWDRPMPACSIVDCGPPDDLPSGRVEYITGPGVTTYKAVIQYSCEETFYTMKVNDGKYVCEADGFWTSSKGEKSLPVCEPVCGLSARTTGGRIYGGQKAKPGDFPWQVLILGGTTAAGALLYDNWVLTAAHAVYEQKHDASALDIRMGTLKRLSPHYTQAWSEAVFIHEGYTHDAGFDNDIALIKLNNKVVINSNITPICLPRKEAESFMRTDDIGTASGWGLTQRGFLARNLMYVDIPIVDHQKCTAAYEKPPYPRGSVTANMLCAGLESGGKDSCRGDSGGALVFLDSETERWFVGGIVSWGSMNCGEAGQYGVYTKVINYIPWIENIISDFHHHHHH
Bridge positions count the residues as written; N and C are the ends. Square brackets hold non-standard residues; d marks the D form. Ends that are not written are not given here. tBuAla = CC(C)(C)C[C@H](N)C(=O)O; Cba = N[C@@H](CC1CCC1)C(=O)O; Pen = CC(C)(S)[C@H](N)C(=O)O
Numbers only, in µM.

Solved entries:
[2‑(Pyrrolidine)acetyl]ICSRS[tBuAla]PPI[Pen]IPD-NH2 (disulfide 3-11) [(2-(Pyrrolidine)acetyl)-IC+SRS-((tBu)A)-PPI-(Pen)+IPD-NH2] = 0.087
A[Cba]CSRS[tBuAla]PPI[Pen]IPD-NH2 (disulfide 3-11; N-terminus assumed; SMILES CC[C@H](C)[C@@H]1NC(=O)[C@@H]2CCCN2C(=O)[C@@H]2CCCN2C(=O)[C@H](CC(C)(C)C)NC(=O)[C@H](CO)NC(=O)[C@H](CCCNC(=N)N)NC(=O)[C@H](CO)NC(=O)[C@@H](NC(=O)[C@H](CC2CCC2)NC(=O)[C@H](C)N)CSSC(C)(C)[C@@H](C(=O)N[C@H](C(=O)N2CCC[C@H]2C(=O)N[C@@H](CC(=O)O)C(N)=O)[C@@H](C)CC)NC1=O) [A-(Cba)-C+SRS-((tBu)A)-PPI-(Pen)+IPD-NH2] = 0.024

Switching to the query record.
INPUT: # human MASP2 IC50 lookup, item [2‑(Piperidin)acetyl]ICSRS[tBuAla]PPI[Pen]IPD-NH2 (disulfide 3-11) [(2-(Piperidin)acetyl)-IC+SRS-((tBu)A)-PPI-(Pen)+IPD-NH2]
OUTPUT: 0.071
